This listing pairs molecules with measured Plant response rating, Galium.
Tested on: galium
Assay: Test C postemergence
Format: in vivo, Galium aparine
Conditions: 125 g ai/ha, postemergence, 10 days; 0 to 100 scale, 0 no effect, 100 complete control
Simply state the number, no unit and no words.

> print(dat)
                                 smiles.str                  endpoint.name  measurement
1  COC[C@H]1CN(C(=O)c2cc(-n3cncn3)ccc2OC)c2cccc(Cl)c2O1  Plant response rating, Galium          100
2  Cc1cc(-n2cnc(C(C)C)n2)cc(C(=O)N2C[C@H](C)Oc3c(Cl)cccc32)c1Cl  Plant response rating, Galium          100
3  CC(C)n1cnc(-c2cccc(C(=O)N3C[C@H](C)Oc4c(Cl)cccc43)c2)n1  Plant response rating, Galium            0
4  COc1ccc(-n2cncn2)cc1C(=O)N1C[C@H](C)Oc2c(Cl)cccc21  Plant response rating, Galium          100

Attention now shifts to the item below.
## Task # input molecule: COC[C@H]1CN(C(=O)c2cccc(-n3cnc(C(C)(C)O)n3)c2)c2cccc(Cl)c2O1 ; wanted: its Plant response rating, Galium
## Result 100
